- target.desc: T1, Nrd1 307-491 WT (Saccharomyces cerevisiae, UniProt P53617 307-491)
- T1 sequence: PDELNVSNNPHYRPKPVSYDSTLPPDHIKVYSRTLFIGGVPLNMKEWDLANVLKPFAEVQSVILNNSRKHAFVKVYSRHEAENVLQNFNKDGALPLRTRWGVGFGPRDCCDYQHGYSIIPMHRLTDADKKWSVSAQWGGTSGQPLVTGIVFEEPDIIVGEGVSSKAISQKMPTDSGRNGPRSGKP
- procedure.details: fluorescence anisotropy; FA: 10 nM RNA, 50 mM sodium phosphate pH 8, 150 mM NaCl, 10 mM beta-mercaptoethanol, 20 C (protein stock in 300 mM NaCl); NMR: same buffer with 300 mM NaCl, 20
- condition.description: protein: recombinant; tags: C-terminal His6; label: 5' fluorescein or TAMRA
quantity: log10 of Kd (log10 of the value in µM)
Transform log10 | Measure Kd | Unit µM

- binder: "GCGGGCG (ssRNA)"
  log10 of Kd: 1.12

Looking for the measured log10 of Kd of AAAAAAA (ssRNA) [A7] , can you help?
1.51
